Reported pEC50 values are given for each entry in this list.
System: F508del (Homo sapiens, UniProt P13569, DEL508-508)
Sequence (P13569 with tags, fused parts or gaps DEL508-508): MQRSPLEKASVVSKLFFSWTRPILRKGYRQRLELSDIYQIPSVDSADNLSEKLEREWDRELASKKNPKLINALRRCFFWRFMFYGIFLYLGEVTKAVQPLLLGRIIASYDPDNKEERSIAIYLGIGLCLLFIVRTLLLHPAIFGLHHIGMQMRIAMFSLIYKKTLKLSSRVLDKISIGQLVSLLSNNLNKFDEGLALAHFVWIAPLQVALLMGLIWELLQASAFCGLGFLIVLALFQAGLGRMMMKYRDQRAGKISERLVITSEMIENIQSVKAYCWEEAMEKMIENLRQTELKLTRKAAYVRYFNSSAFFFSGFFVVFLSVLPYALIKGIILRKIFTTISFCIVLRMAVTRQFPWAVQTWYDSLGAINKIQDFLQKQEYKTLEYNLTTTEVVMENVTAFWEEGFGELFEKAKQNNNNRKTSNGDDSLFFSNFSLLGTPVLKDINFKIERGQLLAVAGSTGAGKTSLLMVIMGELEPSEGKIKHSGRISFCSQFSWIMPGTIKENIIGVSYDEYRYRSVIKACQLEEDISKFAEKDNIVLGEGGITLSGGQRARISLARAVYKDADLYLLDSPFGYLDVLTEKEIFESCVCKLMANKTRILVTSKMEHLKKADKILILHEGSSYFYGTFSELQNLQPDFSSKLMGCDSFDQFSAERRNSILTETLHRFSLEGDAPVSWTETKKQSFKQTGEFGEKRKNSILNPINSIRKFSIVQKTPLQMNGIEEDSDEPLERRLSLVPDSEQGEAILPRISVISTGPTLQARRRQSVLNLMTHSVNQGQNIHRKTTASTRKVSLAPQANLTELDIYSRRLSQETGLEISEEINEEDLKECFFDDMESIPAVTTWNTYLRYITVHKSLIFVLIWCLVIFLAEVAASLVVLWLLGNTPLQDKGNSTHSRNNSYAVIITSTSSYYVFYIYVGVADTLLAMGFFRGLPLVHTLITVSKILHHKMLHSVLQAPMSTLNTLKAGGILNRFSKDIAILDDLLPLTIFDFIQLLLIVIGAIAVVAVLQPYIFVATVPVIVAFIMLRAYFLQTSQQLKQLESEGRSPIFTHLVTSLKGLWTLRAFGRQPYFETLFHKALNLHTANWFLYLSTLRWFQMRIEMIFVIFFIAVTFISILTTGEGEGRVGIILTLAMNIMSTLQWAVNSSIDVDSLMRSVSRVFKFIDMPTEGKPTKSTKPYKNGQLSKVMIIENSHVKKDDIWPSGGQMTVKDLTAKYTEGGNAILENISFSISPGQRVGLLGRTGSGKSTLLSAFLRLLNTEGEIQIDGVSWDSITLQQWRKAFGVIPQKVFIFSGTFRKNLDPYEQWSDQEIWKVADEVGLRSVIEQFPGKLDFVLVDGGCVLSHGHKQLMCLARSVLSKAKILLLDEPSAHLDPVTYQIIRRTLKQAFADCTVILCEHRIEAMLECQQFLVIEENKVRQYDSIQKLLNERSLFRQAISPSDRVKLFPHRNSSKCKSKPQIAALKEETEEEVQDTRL
Procedure Text: Membrane potential optical assay (FRET voltage-sensor dyes), identification of correction compounds
Measurement Parameters: modulation of CFTR activity; NIH3T3 cells stably expressing F508del; procedures described above
pEC50: −log10 of the molar value.

Record excerpt, results attached:
CC(C)COc1cc(F)cc(-c2ccc(C(=O)NS(=O)(=O)c3cccc(N)n3)c(OC(C)CC(C)(C)C)n2)c1 (stereo not shown) : > 5.52
CC(C)COc1cc(F)cc(-c2ccc(C(=O)NS(=O)(=O)c3cccc(N)n3)c(NC(C)C(C)C)n2)c1 (stereo not shown) : 5.00 to 5.52

Prompt: Item CC(C)Oc1ccc(-c2ccc(C(=O)NS(=O)(=O)c3cccc(N)n3)c(N(C)C(C)C)n2)cn1 with F508del (Homo sapiens, UniProt P13569, DEL508-508) - pEC50?
Response: 5.00 to 5.52

Prompt: Moving on to the next compound: CC[C@H](C)Oc1nc(-c2cc(F)cc(OCC(C)C)c2)ccc1C(=O)NS(=O)(=O)c1cccc(N)n1
Response: > 5.52

----------
System: F508del (Homo sapiens, UniProt P13569, DEL508-508)
Construct: expressed in transfected cells
Procedure Text: Membrane potential optical assay (FRET voltage-sensor dyes), identification of correction compounds
Assay type: cell-based
Measurement Parameters: maximum efficacy; NIH3T3 cells stably expressing F508del; procedures described above; read-out: Max Efficacy
Measurement Label: Emax

Record excerpt, results attached:
CCCOc1nc(-c2cc(F)cc(OCC(C)C)c2)ccc1C(=O)NS(=O)(=O)c1cccc(N)n1 [Compound 27] : > 80%
CC(C)COc1cc(F)cc(-c2ccc(C(=O)NS(=O)(=O)c3cccc(N)n3)c(OCCOC(C)(C)C)n2)c1 [Compound 4] : 30 to 80%
CC(C)COc1cc(F)cc(-c2ccc(C(=O)NS(=O)(=O)c3cccc(N)n3)c(N(C)CC(C)C)n2)c1 [Compound 61] : > 80%

Prompt: Which measured Emax value corresponds to CC(C)COc1cc(F)cc(-c2ccc(C(=O)NS(=O)(=O)c3ccn[nH]3)c(NCC(C)(C)C)n2)c1 [Compound 72] ?
Response: 30 to 80%

----------
System: F508del (Homo sapiens, UniProt P13569, DEL508-508)
Construct: expressed in transfected cells
Procedure Text: Membrane potential optical assay (FRET voltage-sensor dyes), identification of correction compounds
Format: cell-based
Measurement Parameters: maximum efficacy; NIH3T3 cells stably expressing F508del; procedures described above; read-out: Max Efficacy
Measurement Label: Emax

CCC(CC)Oc1nc(-c2cc(F)cc(OCC(C)C)c2)ccc1C(=O)NS(=O)(=O)c1cccc(N)n1 [Compound 47] : > 80%
C=CCOc1nc(-c2cc(F)cc(OCC(C)C)c2)ccc1C(=O)NS(=O)(=O)c1cccc(N)n1 [Compound 43] : 30 to 80%
CC(C)Oc1ccc(-c2ccc(C(=O)NS(=O)(=O)c3cccc(N)n3)c(N(C)C(C)C)n2)cn1 [Compound 70] : 30 to 80%

Now consider the entry below.
Prompt: Item CC(C)COc1cc(F)cc(-c2ccc(C(=O)NS(=O)(=O)c3cccc(N)n3)c(N(C)C)n2)c1 [Compound 19] with F508del (Homo sapiens, UniProt P13569, DEL508-508) - Emax?
Response: > 80%

Provenance of the data: patent US10738030B2
